These data points were gathered from patent US10670605B2.

# isoTOP-ABPP ratio Q8N1F7_C522 per entry
Subject Of Test: cysteines in MDA-MB-231 and Ramos cells (Homo sapiens, UniProt Q8N1F7)
Sequence (Q8N1F7 whole entry, the tested form may be a part): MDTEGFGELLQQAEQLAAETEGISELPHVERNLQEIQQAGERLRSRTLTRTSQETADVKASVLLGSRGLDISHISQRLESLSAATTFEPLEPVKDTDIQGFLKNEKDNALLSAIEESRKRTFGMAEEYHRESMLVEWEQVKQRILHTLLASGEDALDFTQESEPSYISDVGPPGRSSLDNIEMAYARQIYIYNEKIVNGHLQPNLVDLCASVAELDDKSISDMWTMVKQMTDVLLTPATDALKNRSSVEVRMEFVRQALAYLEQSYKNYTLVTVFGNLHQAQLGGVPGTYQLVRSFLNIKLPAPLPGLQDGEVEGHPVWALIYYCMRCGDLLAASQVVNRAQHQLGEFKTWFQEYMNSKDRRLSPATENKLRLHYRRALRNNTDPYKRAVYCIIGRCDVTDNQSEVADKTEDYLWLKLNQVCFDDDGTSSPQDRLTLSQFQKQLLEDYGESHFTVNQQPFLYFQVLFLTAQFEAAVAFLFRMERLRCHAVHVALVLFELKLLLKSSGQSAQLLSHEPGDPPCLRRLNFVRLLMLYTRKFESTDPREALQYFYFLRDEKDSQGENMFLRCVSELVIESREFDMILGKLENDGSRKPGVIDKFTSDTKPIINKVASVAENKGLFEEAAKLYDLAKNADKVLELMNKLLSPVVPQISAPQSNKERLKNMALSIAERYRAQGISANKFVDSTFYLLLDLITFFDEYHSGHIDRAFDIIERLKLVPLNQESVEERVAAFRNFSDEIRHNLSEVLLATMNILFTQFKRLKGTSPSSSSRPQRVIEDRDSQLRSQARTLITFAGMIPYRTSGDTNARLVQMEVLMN
Assay Name: Competitive isoTOP-ABPP in situ (fragment-treated cells)
Format: cell-based
Condition Label: 200 μM, insitu, 231

[
  {
    "Compound": "O=C(CCl)NC(=O)NC12CC3CC(CC(C3)C1)C2 [compound 12]",
    "isoTOP-ABPP ratio Q8N1F7_C522": 20.0
  },
  {
    "Compound": "Cc1ccc(C=C(C#N)C(=O)NCCN2CCOCC2)cc1 [compound 41]",
    "isoTOP-ABPP ratio Q8N1F7_C522": 0.8
  },
  {
    "Compound": "C=CC(=O)Nc1cc(F)c(N2CCN(C(=O)OC(C)(C)C)CC2)c(F)c1 [compound 38]",
    "isoTOP-ABPP ratio Q8N1F7_C522": 1.7
  },
  {
    "Compound": "CC1CCc2ccccc2N1C(=O)CCl (stereo not shown) [compound 45]",
    "isoTOP-ABPP ratio Q8N1F7_C522": 20.0
  }
]

---

Subject Of Test: UniProt Q99873
Sequence (Q99873 whole entry): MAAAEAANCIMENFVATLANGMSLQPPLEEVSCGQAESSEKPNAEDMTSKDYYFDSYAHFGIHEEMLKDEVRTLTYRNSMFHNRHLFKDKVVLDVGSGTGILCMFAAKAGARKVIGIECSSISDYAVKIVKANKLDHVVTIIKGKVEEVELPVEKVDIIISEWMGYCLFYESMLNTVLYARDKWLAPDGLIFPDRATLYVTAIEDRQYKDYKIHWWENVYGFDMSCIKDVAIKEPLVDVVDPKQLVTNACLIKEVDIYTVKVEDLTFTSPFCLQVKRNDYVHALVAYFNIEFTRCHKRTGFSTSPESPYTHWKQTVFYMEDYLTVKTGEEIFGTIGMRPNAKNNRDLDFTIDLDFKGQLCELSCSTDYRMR
Assay Name: Competitive isoTOP-ABPP, cell lysates
Assay type: binding
Condition Label: 500 μM, invitro, ramos
Listing of recorded isoTOP-ABPP ratio, Q99873_C109 by entry.

[
  {
    "Smiles Repr": "O=C(CCl)NC(=O)NC12CC3CC(CC(C3)C1)C2",
    "isoTOP-ABPP ratio, Q99873_C109": 1.3
  },
  {
    "Smiles Repr": "O=C(CCl)N1CCN(S(=O)(=O)c2ccccc2F)CC1",
    "isoTOP-ABPP ratio, Q99873_C109": 1.3
  },
  {
    "Smiles Repr": "Cn1cc(S(=O)(=O)N2CCOCC2)cc1C(=O)NC(=O)CCl",
    "isoTOP-ABPP ratio, Q99873_C109": 20.0
  },
  {
    "Smiles Repr": "O=C(CCl)NCCc1c[nH]c2ccccc12",
    "isoTOP-ABPP ratio, Q99873_C109": 0.9
  },
  {
    "Smiles Repr": "C=CC(=O)N(c1ccccc1)c1ccc(Br)cc1",
    "isoTOP-ABPP ratio, Q99873_C109": 1.3
  }
]

---

Subject Of Test: cysteines in MDA-MB-231 and Ramos cells (Homo sapiens)
Assay Name: Competitive isoTOP-ABPP in situ (fragment-treated cells)
Format: cell-based
Condition Label: 200 μM, insitu, 231
# if value of isoTOP-ABPP ratio Q6ICB0_C108 reaches 1, tag 1.0; if it stays below, tag 0.0

[
  {
    "Compound": "C=CC(=O)Nc1cc(F)c(N2CCN(C(=O)OC(C)(C)C)CC2)c(F)c1 [compound 38]",
    "Assigned Category": 1.0
  },
  {
    "Compound": "CC(C)CCOCCNC(=O)CCl [compound 27]",
    "Assigned Category": 1.0
  },
  {
    "Compound": "CC1CCc2ccccc2N1C(=O)CCl (stereo not drawn) [compound 45]",
    "Assigned Category": 1.0
  },
  {
    "Compound": "O=C(CCl)NC12CC3CC(CC(C3)C1)C2 [compound 21]",
    "Assigned Category": 0.0
  },
  {
    "Compound": "C=CC(=O)N(Cc1cccnc1)c1cc(C(F)(F)F)cc(C(F)(F)F)c1 [compound 31]",
    "Assigned Category": 1.0
  },
  {
    "Compound": "O=C(CCl)Nc1cccc2ncccc12 [compound 51]",
    "Assigned Category": 1.0
  }
]

---

This section presents molecules with their documented isoTOP-ABPP ratio Q9NQW6_C712 values.
Subject Of Test: cysteines in MDA-MB-231 and Ramos cells (Homo sapiens)
Assay Name: Competitive isoTOP-ABPP in situ (fragment-treated cells)
Format: cell-based
Condition Label: 200 μM, insitu, 231

[
  {
    "Molecule": "CC(C)CCOCCNC(=O)CCl",
    "isoTOP-ABPP ratio Q9NQW6_C712": 1.0
  },
  {
    "Molecule": "O=C(CCl)NC(=O)NC12CC3CC(CC(C3)C1)C2",
    "isoTOP-ABPP ratio Q9NQW6_C712": 16.7
  },
  {
    "Molecule": "O=C(CCl)NCCc1c[nH]c2ccccc12",
    "isoTOP-ABPP ratio Q9NQW6_C712": 1.3
  },
  {
    "Molecule": "Cc1ccc(C=C(C#N)C(=O)NCCN2CCOCC2)cc1",
    "isoTOP-ABPP ratio Q9NQW6_C712": 0.7
  },
  {
    "Molecule": "CC1CCc2ccccc2N1C(=O)CCl (stereo not drawn)",
    "isoTOP-ABPP ratio Q9NQW6_C712": 5.9
  },
  {
    "Molecule": "COc1ccccc1OCCNC(=O)CCl",
    "isoTOP-ABPP ratio Q9NQW6_C712": 0.9
  },
  {
    "Molecule": "O=C(CCl)N1CCN(S(=O)(=O)c2ccccc2F)CC1",
    "isoTOP-ABPP ratio Q9NQW6_C712": 11.2
  },
  {
    "Molecule": "C=CC(=O)N(Cc1cccnc1)c1cc(C(F)(F)F)cc(C(F)(F)F)c1",
    "isoTOP-ABPP ratio Q9NQW6_C712": 0.7
  },
  {
    "Molecule": "C=CC(=O)Nc1cc(F)c(N2CCN(C(=O)OC(C)(C)C)CC2)c(F)c1",
    "isoTOP-ABPP ratio Q9NQW6_C712": 1.5
  }
]

---

Subject Of Test: cysteines in MDA-MB-231 and Ramos cells (Homo sapiens)
Assay Name: Competitive isoTOP-ABPP in situ (fragment-treated cells)
Format: cell-based
Condition Label: 200 μM, insitu, 231
Measurement Name: isoTOP-ABPP ratio Q8NBS9_C350

[
  {
    "Molecule": "COc1ccccc1OCCNC(=O)CCl",
    "Value Reported": 1.1
  },
  {
    "Molecule": "O=C(CCl)NC(=O)NC12CC3CC(CC(C3)C1)C2",
    "Value Reported": 9.4
  },
  {
    "Molecule": "O=C(CCl)NCCc1c[nH]c2ccccc12",
    "Value Reported": 1.3
  },
  {
    "Molecule": "CC(C)CCOCCNC(=O)CCl",
    "Value Reported": 1.1
  },
  {
    "Molecule": "C=CC(=O)N(Cc1cccnc1)c1cc(C(F)(F)F)cc(C(F)(F)F)c1",
    "Value Reported": 0.8
  },
  {
    "Molecule": "Cc1ccc(C=C(C#N)C(=O)NCCN2CCOCC2)cc1",
    "Value Reported": 0.9
  },
  {
    "Molecule": "CC1CCc2ccccc2N1C(=O)CCl (stereo not shown)",
    "Value Reported": 2.1
  }
]

---

Measured isoTOP-ABPP ratio Q5T440_C170 values are reported for all entries that follow.
Subject Of Test: cysteines in MDA-MB-231 and Ramos cells (Homo sapiens, UniProt Q5T440)
Sequence (Q5T440 40-356): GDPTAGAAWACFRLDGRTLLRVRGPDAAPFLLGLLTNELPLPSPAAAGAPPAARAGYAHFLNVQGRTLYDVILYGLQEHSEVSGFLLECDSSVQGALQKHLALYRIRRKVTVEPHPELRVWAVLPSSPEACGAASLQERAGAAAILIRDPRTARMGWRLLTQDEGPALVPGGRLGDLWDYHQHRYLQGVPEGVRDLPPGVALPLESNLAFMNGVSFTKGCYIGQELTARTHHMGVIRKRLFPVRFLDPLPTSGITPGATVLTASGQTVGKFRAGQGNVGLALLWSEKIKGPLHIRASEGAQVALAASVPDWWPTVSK
Assay Name: Competitive isoTOP-ABPP in situ (fragment-treated cells)
Type: cell-based
Condition Label: 200 μM, insitu, 231

[
  {
    "Molecule": "O=C(CCl)NC12CC3CC(CC(C3)C1)C2",
    "isoTOP-ABPP ratio Q5T440_C170": 1.6
  },
  {
    "Molecule": "CC1CCc2ccccc2N1C(=O)CCl (centres unmarked)",
    "isoTOP-ABPP ratio Q5T440_C170": 3.5
  },
  {
    "Molecule": "O=C(CCl)NCCc1c[nH]c2ccccc12",
    "isoTOP-ABPP ratio Q5T440_C170": 1.2
  },
  {
    "Molecule": "Cc1ccc(C=C(C#N)C(=O)NCCN2CCOCC2)cc1",
    "isoTOP-ABPP ratio Q5T440_C170": 0.7
  },
  {
    "Molecule": "O=C(CCl)N1CCN(S(=O)(=O)c2ccccc2F)CC1",
    "isoTOP-ABPP ratio Q5T440_C170": 5.7
  }
]

---

Subject Of Test: IMPDH2 (C140) (Homo sapiens)
Construct: Full length cDNAs encoding for IDH1 (Open Biosystems, Clone ID: 3880331) and IMPDH2 (Open Biosystems, Clone ID: 3447994); His6 (C)
Assay Name: Click probe 18 labeling of recombinant IMPDH2 and its competition
Condition Label: probe 18 25 μM, ATP 15 min pre-incubation; read-out: IC50 for blockade of 18 labeling of IMPDH2

[
  {
    "Compound": "Nc1ncnc2c1ncn2[C@@H]1O[C@H](COP(=O)(O)OP(=O)(O)OP(=O)(O)O)[C@@H](O)[C@H]1O [ATP]",
    "Subject Of Test": "IMPDH2 (C140) (Homo sapiens)",
    "IC50 / µM": 45
  }
]

---

Subject Of Test: MGMT C150 (P16455) (Homo sapiens, UniProt P16455)
Sequence (P16455 whole entry): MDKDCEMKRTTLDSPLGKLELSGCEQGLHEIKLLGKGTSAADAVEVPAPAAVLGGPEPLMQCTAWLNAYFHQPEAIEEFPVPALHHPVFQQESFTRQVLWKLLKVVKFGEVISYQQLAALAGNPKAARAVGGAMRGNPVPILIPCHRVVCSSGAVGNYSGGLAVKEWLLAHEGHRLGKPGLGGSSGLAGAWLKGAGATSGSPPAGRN
Assay Name: Competitive isoTOP-ABPP, cell lysates
Type: binding
Condition Label: 500 μm in-vitro ramos
The label is met for isoTOP-ABPP ratio (reactivity profile), P16455_C150 below 2 and not met for isoTOP-ABPP ratio (reactivity profile), P16455_C150 equal to or exceeding 2.

[
  {
    "Compound": "N#C/C(=C\\c1cc(C(F)(F)F)cc(C(F)(F)F)c1)C(N)=O [compound 23]",
    "Assigned Category": "met"
  },
  {
    "Compound": "COc1ccccc1OCCNC(=O)CCl [compound 28]",
    "Assigned Category": "met"
  },
  {
    "Compound": "O=C(CCl)N1CCC(C(O)(c2ccccc2)c2ccccc2)CC1 [compound 20]",
    "Assigned Category": "not met"
  },
  {
    "Compound": "C=CC(=O)N(Cc1cccnc1)c1ccc(Oc2ccccc2)c(C(F)(F)F)c1 [compound 15]",
    "Assigned Category": "met"
  },
  {
    "Compound": "O=C(CCl)NC12CC3CC(CC(C3)C1)C2 [compound 21]",
    "Assigned Category": "not met"
  },
  {
    "Compound": "O=C(/C=C/c1ccccc1)Nc1cc(C(F)(F)F)cc(C(F)(F)F)c1 [compound 26]",
    "Assigned Category": "met"
  },
  {
    "Compound": "CC(Br)C(=O)Nc1cc(C(F)(F)F)cc(C(F)(F)F)c1 (stereo not shown) [compound 24]",
    "Assigned Category": "not met"
  },
  {
    "Compound": "O=C(CCl)N1CCOCC1 [compound 22]",
    "Assigned Category": "not met"
  },
  {
    "Compound": "O=C(CCl)N1CCN(CC(=O)N2CCOCC2)CC1 [compound 29]",
    "Assigned Category": "met"
  },
  {
    "Compound": "CC(C)CCOCCNC(=O)CCl [compound 27]",
    "Assigned Category": "not met"
  }
]
